// data source = ChEMBL document CHEMBL3351775

subject_of_test: Human immunodeficiency virus type 1 reverse transcriptase (Human immunodeficiency virus 1, UniProt Q72547)
method_description: Inhibition of HIV1 reverse transcriptase assessed as reduction in biotin-dUTP incorporation using poly(rA)-oligo(dT) as template/primer and digoxigenin-/biotin-labeled dUTP nucleotides incubated for 1 hr
experimental_endpoint: IC50 (µM)
// note: answer is a bare numeric in µM

Asked: Given `C#CCNC(=O)c1cnc(Nc2ccc(C#N)cc2)cc1Oc1c(C)cc(C#N)cc1C` , state its recorded IC50.
Given back: 1.29

----------
In this section, each of the molecules is paired with its reported CC50 at 120 h.
method_description: Cytotoxicity against mock-infected human MT4 cells after 5 days by MTT assay
Type: cell-based

Asked: Given `Cc1ccnc2c1NC(=O)c1cccnc1N2C1CC1` , state its recorded CC50 at 120 h.
Given back: > 15 µM

Asked: Given `Cc1cn([C@H]2C[C@H](N=[N+]=[N-])[C@@H](CO)O2)c(=O)[nH]c1=O` , state its recorded CC50 at 120 h.
Given back: > 93.5 µM

Asked: Given `Cc1cc(C#N)cc(C)c1Oc1cc(Nc2ccc(C#N)cc2)ncc1C(N)=O` , state its recorded CC50 at 120 h.
Given back: > 326 µM

Asked: Given `Nc1ccn([C@@H]2CS[C@H](CO)O2)c(=O)n1` , state its recorded CC50 at 120 h.
Given back: > 87.2 µM

----------
method_description: Cytotoxicity against mock-infected human MT4 cells after 5 days by MTT assay
Format: cell-based
experimental_endpoint: CC50 at 120 h

Asked: Given `Cc1cc(C)c(Oc2cc(Nc3ccc(C#N)cc3)ncc2C(N)=O)c(C)c1` , state its recorded CC50 at 120 h.
Given back: > 336 µM

----------
In this section, each of the molecules is paired with its reported pIC50.
subject_of_test: Human immunodeficiency virus type 1 reverse transcriptase (Human immunodeficiency virus 1, UniProt Q72547)
// pIC50 here means minus log10 of the molar concentration (mol/L)

Past entries and their recorded results:
{"columns": ["smiles_data", "pIC50"],
 "data": [
  ["Cc1cc(C#N)cc(C)c1Oc1cc(Nc2ccc(C#N)cc2)ncc1C(=O)NCC1CC1", 5.37],
  ["COCCNC(=O)c1cnc(Nc2ccc(C#N)cc2)cc1Oc1c(C)cc(C#N)cc1C", 4.95],
  ["Cc1cc(C)c(Oc2cc(Nc3ccc(C#N)cc3)ncc2C(=O)NC2CC2)c(C)c1", 6.64],
  ["Cc1cc(C#N)cc(C)c1Oc1cc(Nc2ccc(C#N)cc2)ncc1C(N)=O", 7.10]
]}

Read the next record carefully.
Asked: Given `Cc1cc(C)c(Oc2cc(Nc3ccc(C#N)cc3)ncc2C(=O)NCCN(C)C)c(C)c1` , state its recorded pIC50.
Given back: 5.46

----------
method_description: Cytotoxicity against mock-infected human MT4 cells after 5 days by MTT assay
Type: cell-based
Structures can show the parent of a compound that is named as a salt.
experimental_endpoint: CC50 at 120 h

Past entries and their recorded results:
{"columns": ["compound", "experimental_endpoint", "observed_measurement"],
 "data": [
  ["Cc1cc(C#N)cc(C)c1Oc1cc(Nc2ccc(C#N)cc2)ncc1C(=O)NCC1CC1", "CC50 at 120 h", "> 146 µM"],
  ["O=C1Nc2ccc(Cl)cc2[C@@](C#CC2CC2)(C(F)(F)F)O1", "CC50 at 120 h", "> 6.34 µM"],
  ["CC(C)Nc1cccnc1N1CCN(C(=O)c2cc3cc(NS(C)(=O)=O)ccc3[nH]2)CC1 [DELAVIRDINE MESYLATE]", "CC50 at 120 h", "> 43.8 µM"]
]}

Read the next record carefully.
Asked: Given `Cc1cc(C#N)cc(C)c1Oc1nc(Nc2ccc(C#N)cc2)nc(N)c1Br` , state its recorded CC50 at 120 h.
Given back: > 4.59 µM
